Attribution: ChEMBL document CHEMBL4118171

Assay: Ratio of AUC (0 to 3 hrs) in FVB mouse brain to plasma at 1 mg/kg, iv by LC-MS/MS analysis
Type: ADME, organism-based
Conditions: read-out: Ratio AUC
Result Type: Kp

Molecule Smiles | Result
CC[C@@]12COCCN1c1nc(-n3ccnc3-c3ccccc3)ncc1N(C)C2=O | 0.3

----------
Assay: Ratio of drug level in Sprague-Dawley rat brain to plasma at 100 mg/kg, po administered as single dose after 6 hrs by LC-MS/MS analysis
Type: ADME, organism-based
Settings: read-out: BPR

Molecule Smiles | Kp at 6 h
CC[C@@]12COCCN1c1nc(-n3ccnc3-c3ccccc3)ncc1N(C)C2=O | 0.42

----------
Assay: Drug uptake in mouse brain at 5 mg/kg/day, po after 30 to 60 mins by LC/MS analysis
Format: ADME, organism-based
Conditions: in vivo, read-out: Drug uptake
Result Type: concentration (nM)

Compound | Result Type | Units Label | Readout Number
CN1CCN(CCOc2cc(OC3CCOCC3)c3c(Nc4c(Cl)ccc5c4OCO5)ncnc3c2)CC1 [SARACATINIB] | concentration | nM | 50

----------
Assay: Ratio of drug level in brain to plasma in rat
Type: ADME
Details: read-out: BPR
Result Type: Kp

Molecule Smiles | Result Type | Result
COc1ncccc1-c1cnn2ccc(N3CCN(C(=O)OC(C)C)CC3)nc12 | Kp | > 2
CN(CCNc1ccn2ncc(-c3ccc(C(N)=O)cc3)c2n1)C(=O)OC(C)(C)C | Kp | 0.007

----------
System: MDR1
Assay: Efflux ratio of apparent permeability in MDCK2-MDR1
Type: ADME, cell-based, Canis lupus familiaris
Settings: dog, MDCK-MDR1
Result Type: efflux ratio

Molecule Smiles | Result Type | Result
CN1C(=O)[C@@H](NC(=O)c2nnc(Cc3ccccc3)o2)COc2cccnc21 | efflux ratio | < 2

----------
Assay: Ratio of drug level in brain to plasma in Sprague-Dawley rat at 5 mg/kg, po after 3 hrs by LC-MS/MS analysis
Type: ADME, organism-based
Settings: read-out: BPR

Compound | Kp at 3 h
CN1CCN(c2cc(-c3ccncc3)c(-c3ccc4ccccc4c3)nn2)CC1 [MW-150] | > 0.9

----------
Assay: Ratio of drug level in Sprague-Dawley rat brain to plasma at 200 mg/kg, po administered as single dose after 6 hrs by LC-MS/MS analysis
Type: ADME, organism-based
Settings: read-out: BPR
Result Type: Kp at 6 h

Molecule Smiles | Result Type | Readout Number
CC[C@@]12COCCN1c1nc(-n3ccnc3-c3ccccc3)ncc1N(C)C2=O | Kp at 6 h | 0.46

----------
Experiment: Ratio of drug level in brain to plasma in C57BL6 mouse at 30 mg/kg, po after 1 hr by LC/MS analysis
Format: ADME, organism-based
Details: read-out: BPR
Result Type: Kp at 1 h

Molecule Smiles | Result Type | Result
Cc1ccc(C(=O)NNC(=O)c2c(C)cccc2Cl)cc1C#Cc1cnc2ccccc2c1 | Kp at 1 h | 0.4
